System: UACC-62 melanoma
assayRemarks: NCI-60 one-dose screen, 48 h (100 = growth as untreated, 0 = no growth, -100 = all killed)
protocolConditions: 10 µM unless noted
About 83,000 compounds went through this panel and 20% of them were active in at least one assay; those are over-represented in the sample as a whole.
One threshold, 80%, splits the recorded growth values: lower ones are fulfilled, equal or higher ones are not fulfilled.

compound=Cc1nc2c(c(-c3ccccc3)n1)Cc1c(ccc3ccccc13)O2 answerlabel="not fulfilled"
compound=O=C1NC(=O)C(=Cc2cc(-c3ccc(Cl)cc3)n(-c3ccccc3)n2)C(=O)N1 answerlabel="not fulfilled"
compound="O=C(OCC(O)C(=O)NC12CC3CC(CC(C3)C1)C2)c1cccc(Br)c1 (centres undefined)" answerlabel="not fulfilled"

Q: Input C#CCOc1cccc(Nc2c(Cl)c(CCl)nc3ccc(Oc4ccccc4)cc23)c1 ; condition: growth strictly below 80%. Does it hold?
A: fulfilled

Q: Input O=C1c2ccccc2C(=O)c2cc(Cn3c[n+](Cc4ccc5ccccc5c4)c4ccccc43)ccc21 ; condition: growth strictly below 80%. Does it hold?
A: fulfilled

Q: Input N#C/C(=N\Nc1ccccc1)C(=O)Nc1cc(-c2ccccc2)nn1-c1ccccc1 ; condition: growth strictly below 80%. Does it hold?
A: fulfilled

Q: Input N#CSCc1cc(Cl)c(CSC#N)cc1Cl ; condition: growth strictly below 80%. Does it hold?
A: fulfilled

Q: Input O=C(OCC(O)(CO)C(=O)NC12CC3CC(CC(C3)C1)C2)c1ccc(Cl)cc1 (centres undefined) ; condition: growth strictly below 80%. Does it hold?
A: not fulfilled

Q: Input O=C(c1ccc(F)cc1)C1CCN(CCn2c(=O)[nH]c3ccccc3c2=O)CC1 ; condition: growth strictly below 80%. Does it hold?
A: not fulfilled

Q: Input O=C(Nc1cccc(Cl)c1)Oc1c(Cl)c(Cl)c(Cl)c(Cl)c1Cl ; condition: growth strictly below 80%. Does it hold?
A: not fulfilled

Q: Input OC1CSSC1Cn1cnc2c(Nc3ccc(F)c(Cl)c3)ncnc21 (centres undefined) ; condition: growth strictly below 80%. Does it hold?
A: fulfilled

Q: Input O=C(Nc1cccc(Cn2c(=O)[nH]c3ccc(Oc4ncccn4)cc3c2=O)c1)c1cccc(Cl)c1 ; condition: growth strictly below 80%. Does it hold?
A: fulfilled

Q: Input COc1cccc(C2C3=C(COC3=O)N(CCO)c3cc4c(cc32)OCCO4)c1 (centres undefined) ; condition: growth strictly below 80%. Does it hold?
A: fulfilled

Q: Input COC(=O)c1c(C)nc(C)c2c1C(=O)C(Br)=C(NCCN1CCOCC1)C2=O ; condition: growth strictly below 80%. Does it hold?
A: fulfilled

Q: Input C=C(C)[C@@H]1CC[C@]2(COCCCNCCCN)CC[C@]3(C)[C@H](CC[C@@H]4[C@@]5(C)CC[C@H](OCCCN)C(C)(C)[C@@H]5CC[C@]43C)[C@@H]12 ; condition: growth strictly below 80%. Does it hold?
A: fulfilled

Q: Input CCOC(=O)c1c(C)nc2c(c1N)C(=O)C(=O)N2CCc1ccc(OC)c(OC)c1 ; condition: growth strictly below 80%. Does it hold?
A: fulfilled

Q: Input C=CCn1c(SCC(=O)Nc2ccc(C(=O)/C=C/c3ccc(Cl)cc3)cc2)nnc1-c1ccccc1 ; condition: growth strictly below 80%. Does it hold?
A: not fulfilled

The values you see were collected from PubChem BioAssay (NCI).
